protocolNotes: Inhibition of HIV NL4.3 integrase T124/T125 double mutant assessed as reduction in viral replication by luciferase reporter gene assay
Set-up: species or system Human immunodeficiency virus
property: EC50 (nM)
Give the number; nM is assumed, so skip it.

Worked cases, EC50 given:
* Cc1nc(C(=O)NC2CCN(C)CC2)c(C)c(-c2ccc(Cl)cc2)c1[C@H](OC(C)(C)C)C(=O)O | 2200
* Cc1nc(NC(=O)c2ccccc2OC(F)(F)F)c(C)c(-c2ccc3c(c2C)N(C)CCO3)c1[C@H](OC(C)(C)C)C(=O)O | 4.7
* Cc1nc(C(=O)N[C@H]2CC[C@H](C)CC2)c(C)c(-c2ccc3c(c2)N(C)CCO3)c1[C@H](OC(C)(C)C)C(=O)O | 6.8

Let us examine a further case.
Qu. Name the recorded EC50 for Cc1nc2ccccc2c(-c2ccc3c4c(ccnc24)CCO3)c1[C@H](OC(C)(C)C)C(=O)O [BI-224436] .
Ans. 19

----------
protocolNotes: Half life in bile duct cannulated rat
Format: ADME
runParameters: in vivo
property: half-life (min)
Give the number; min is assumed, so skip it.

Qu. Name the recorded half-life for `Cc1nc(C(=O)N[C@H]2CC[C@H](C)CC2)c(C)c(-c2ccc3c(c2C)N(C)CCO3)c1[C@H](OC(C)(C)C)C(=O)O` .
Ans. 78

----------
protocolNotes: Half life in human liver microsomes
Format: ADME, Microsome
property: half-life (h)
Give the number; h is assumed, so skip it.

Worked cases, half-life given:
• Cc1nc(C(=O)N[C@H]2CC[C@H](C)CC2)c(C)c(-c2ccc(Cl)cc2)c1[C@H](OC(C)(C)C)C(=O)O = 3.07
• Cc1nc(-c2nc3ccccc3n2C)c(C)c(-c2ccc3c(c2C)N(C)CCO3)c1[C@H](OC(C)(C)C)C(=O)O = 3.25
• Cc1nc(C(=O)N[C@H]2CC[C@H](C)CC2)c(C)c(-c2ccc3c(c2C)NCCO3)c1[C@H](OC(C)(C)C)C(=O)O = 3.12
• Cc1nc(C(=O)NC(C)(C)C2CC2)c(C)c(-c2ccc(Cl)cc2)c1[C@H](OC(C)(C)C)C(=O)O = 3.63
• Cc1ccc2nc(-c3nc(C)c([C@H](OC(C)(C)C)C(=O)O)c(-c4ccc5c(c4C)N(C)CCO5)c3C)n(C)c2c1 = 1.58

Qu. Name the recorded half-life for `Cc1nc(C(=O)N[C@H]2CC[C@H](C)CC2)c(C)c(-c2ccc3c(c2)CCCO3)c1[C@H](OC(C)(C)C)C(=O)O` .
Ans. 0.817

Qu. Record: `Cc1nc(-c2nc3cccc(C)c3n2C)c(C)c(-c2ccc(Cl)cc2)c1[C@H](OC(C)(C)C)C(=O)O`
Ans. 2

Qu. Record: `Cc1ccc2[nH]c(-c3nc(C)c([C@H](OC(C)(C)C)C(=O)O)c(-c4ccc(Cl)cc4)c3C)nc2c1`
Ans. 2.77

Qu. Record: `Cc1nc(-c2nc3ccc(F)cc3n2C)c(C)c(-c2ccc3c(c2C)N(C)CCO3)c1[C@H](OC(C)(C)C)C(=O)O`
Ans. 1.58

----------
Ratio EC50 listing for selected compounds.
Tested on: Human immunodeficiency virus
protocolNotes: Ratio of EC50 for HIV1 NL4.3 integrase N124/T125 double mutant in presence of human serum to EC50 for HIV1 NL4.3 integrase N124/T125 double mutant in absence of human serum
Number only, no unit.

Worked cases, Ratio EC50 given:
• Cc1nc(NC(=O)c2ccccc2OC(F)(F)F)c(C)c(-c2ccc3c(c2)N(C)CCO3)c1[C@H](OC(C)(C)C)C(=O)O = 3.4
• Cc1nc(C(=O)N[C@H]2CC[C@H](C)CC2)c(C)c(-c2ccc3c(c2)CCCO3)c1[C@H](OC(C)(C)C)C(=O)O = 4.1

Qu. Name the recorded Ratio EC50 for `Cc1nc(-c2nc3cccc(C)c3n2C)c(C)c(-c2ccc(Cl)cc2)c1[C@H](OC(C)(C)C)C(=O)O` .
Ans. 3.2
